Test system: OVCAR-3 ovarian
ASSAY_OVERVIEW: NCI-60 one-dose screen, 48 h
MEASUREMENT_PARAMETERS: 10 µM unless noted
Compounds without any hit were thinned out: in the full panel of roughly 83,000, 20% have a hit. Active and inactive are the calls of the source. How the source made its calls: active means growth percent below 10; inactive means the rest.
The reply should name one outcome from Yes for active, No for inactive

Cc1cc2nc3c4ccccc4n(CC4=NCCN4)c3nc2cc1C; No
COc1cc(NC(=O)c2cccc(C3CCc4c(cc(OC)c(OC)c4OC)O3)c2)cc(OC)c1OC (stereo not drawn); Yes

### Prompt Hello, I am checking results. What call was entered for c1ccc(-c2csc(Nc3cccc(Nc4nc(-c5ccccc5)cs4)c3)n2)cc1 ?
### Response No

### Prompt Hello, I am checking results. What call was entered for COc1ccc(C(=O)/C=C/c2cccc(Br)c2)cc1S(N)(=O)=O ?
### Response Yes

### Prompt Hello, I am checking results. What call was entered for CSc1ccc(C(=O)Nc2ccc3nnn(/C(C#N)=C/c4ccccn4)c3c2)cc1 ?
### Response Yes

### Prompt Hello, I am checking results. What call was entered for O=[N+]([O-])c1ccc(/C=C/c2nc3ccccc3n3c(=S)[nH]nc23)cc1 ?
### Response No

### Prompt Hello, I am checking results. What call was entered for C=CC[N+](C)(C)CCn1c2ccccc2c2nc3cc(C)c(C)cc3nc21 ?
### Response No

### Prompt Hello, I am checking results. What call was entered for CNS(=O)(=O)c1ccc(Nc2ccc(C(F)(F)F)cc2)c(-c2cn(C)cn2)c1 ?
### Response No

### Prompt Hello, I am checking results. What call was entered for O=C(O)c1cccc(-c2ccc(/C=N/NC(=O)c3[nH]c4ccc(Br)cc4c3-c3ccccc3)o2)c1 ?
### Response No

### Prompt Hello, I am checking results. What call was entered for Cc1ccc(S(=O)(=O)c2nc(S(=O)(=O)c3ccc(C)cc3)c(Cl)s2)cc1 ?
### Response Yes

### Prompt Hello, I am checking results. What call was entered for Cc1ccc([C@H]2C(C(=O)c3ccc(Cl)cc3)C3(N[C@@H]2c2ccccc2)C(=O)Nc2ccc(Br)cc23)cc1 (stereo partly drawn) ?
### Response No

### Prompt Hello, I am checking results. What call was entered for CN(C)CCn1c2ccccc2c2nc3ccc([N+](=O)[O-])cc3nc21 ?
### Response Yes

### Prompt Hello, I am checking results. What call was entered for CN(C)c1ccnc(CNCCSC2(c3ccccc3)c3ccccc3C=Cc3ccccc32)c1 ?
### Response Yes

### Prompt Hello, I am checking results. What call was entered for NS(=O)(=O)c1ccc(N=Nc2c(O)n(CC(=O)Nc3ccccc3)c3ccccc23)cc1 ?
### Response No

### Prompt Hello, I am checking results. What call was entered for O=C(/C=C/c1cccc(OCc2ccc(F)cc2)c1)c1nc2ccccc2[nH]1 ?
### Response No

----------
System: NCI-H226 lung
ASSAY_OVERVIEW: NCI-60 one-dose screen, 48 h
MEASUREMENT_PARAMETERS: 10 µM unless noted
About 83,000 compounds went through this panel and 20% of them were active in at least one assay; those are over-represented in the sample as a whole. The source made the active and inactive calls. How the source made its calls: active means growth percent below 10; inactive means the rest.
The reply should name one outcome from 1.0 for active, 0.0 for inactive

O=C(/C=C/c1ccc(-c2ccccc2)cc1)c1nc2ccccc2n1Cc1ccc(F)cc1; 1.0

### Prompt Hello, I am checking results. What call was entered for COc1cc(/C=C/C(=O)c2ccc(C)cc2)ccc1Oc1nc(Nc2ccc(F)cc2)nc(N(C)C)n1 ?
### Response 0.0

### Prompt Hello, I am checking results. What call was entered for CN(C)c1ccnc(CNCCSC2(c3ccc(C(F)(F)F)cc3)c3ccccc3C=Cc3ccccc32)c1 ?
### Response 0.0

### Prompt Hello, I am checking results. What call was entered for CC(=O)OC[C@@]1(C)C2CC[C@]3(C)C(CC=C4C5CC(C)(C)CC[C@]5(C(=O)Nc5ccc(Br)cc5)CC[C@]43C)[C@@]2(C)C[C@@H](OC(C)=O)[C@@H]1OC(C)=O (some centres undefined) ?
### Response 0.0

### Prompt Hello, I am checking results. What call was entered for COc1c(F)ccc(C(=O)Nc2ccc3nc(NC(=O)C4CCCN(S(=O)(=O)c5ccc(Br)s5)C4)sc3c2)c1F (centres undefined) ?
### Response 0.0

### Prompt Hello, I am checking results. What call was entered for Clc1cccc(N/N=C/c2c[nH]c3ccc(Br)cc23)n1 ?
### Response 0.0

### Prompt Hello, I am checking results. What call was entered for COc1cc2c(c(OC)c1OC)C(=O)CC(c1cccc(NC(=O)c3cc(NC(=O)[C@H](C)N)ccc3Cl)c1)O2 (some centres undefined) ?
### Response 0.0

### Prompt Hello, I am checking results. What call was entered for CC(=O)OC[C@@]1(C)C2CC[C@]3(C)C(CC=C4C5CC(C)(C)CC[C@]5(C(=O)Nc5cccc(C)c5)CC[C@]43C)[C@@]2(C)C[C@@H](OC(C)=O)[C@@H]1OC(C)=O (some centres undefined) ?
### Response 0.0

### Prompt Hello, I am checking results. What call was entered for COc1cc(-c2ccc(/C=N/NC(=O)c3[nH]c4ccc(Br)cc4c3-c3ccccc3)s2)cc(OC)c1OC ?
### Response 0.0
